tested on: Septoria tritici, KUK-1-21 Strain; test: Test for wheat leaf blotch, fluoroimide and/or SDHI agent sprayed on wheat pots, lesion area index 21 days after inoculation; format: in vivo; conditions: SDHI agent 10 ppm + fluoroimide 50 ppm; 21 days
Listed next: entries and their corresponding Control effect Combination with fluoroimide.
Readout Label: Control effect Combination with fluoroimide

* O=C(Nc1ccccc1-c1ccc(Cl)cc1)c1cccnc1Cl | 100%
* CC(C)C1C2CCC1c1c(NC(=O)c3cn(C)nc3C(F)F)cccc12 (stereo not shown) | 100%
* Cn1cc(C(=O)Nc2ccccc2-c2cc(F)c(F)c(F)c2)c(C(F)F)n1 | 100%
* Cn1cc(C(=O)Nc2ccc(F)cc2-c2ccc(Cl)c(Cl)c2)c(C(F)F)n1 | 100%

----------
tested on: Septoria tritici, KUK-1-21 Strain; assay: Test for wheat leaf blotch, fluoroimide and/or SDHI agent sprayed on wheat pots, lesion area index 21 days after inoculation; format: in vivo; settings: SDHI agent 10 ppm + fluoroimide 100 ppm; 21 days
Readout Label: Control effect Combination with fluoroimide (%)

- Cn1cc(C(=O)Nc2ccccc2-c2cc(F)c(F)c(F)c2)c(C(F)F)n1: 100
- CC(C)C1C2CCC1c1c(NC(=O)c3cn(C)nc3C(F)F)cccc12 (stereo not shown): 100
- Cn1cc(C(=O)Nc2ccc(F)cc2-c2ccc(Cl)c(Cl)c2)c(C(F)F)n1: 100
- O=C(Nc1ccccc1-c1ccc(Cl)cc1)c1cccnc1Cl: 95
